measured target: Elastase from porcine pancreas (Sus scrofa)
Construct: purchased Sigma-Aldrich; host or cells: porcine pancreas (tissue-derived commercial powder)
test description: Elastase inhibition assay, spectrophotometric (N-succinyl-Ala-Ala-Ala-p-nitroanilide, 405 nm)
Format: biochemical
measurement conditions: read-out: EC50 (µM) ± SD
readout: EC50
State the value with its unit after it.

## Input Record O=C([O-])c1ccccc1O.[Na+] [Sodium salicylate, reference compound] : what is its EC50 with Elastase from porcine pancreas (Sus scrofa)?
## Output 124 µM

---

measured target: Elastase from porcine pancreas (Sus scrofa, UniProt P00772)
Construct: purchased Sigma-Aldrich; host or cells: porcine pancreas (tissue-derived commercial powder)
Sequence (P00772 27-266): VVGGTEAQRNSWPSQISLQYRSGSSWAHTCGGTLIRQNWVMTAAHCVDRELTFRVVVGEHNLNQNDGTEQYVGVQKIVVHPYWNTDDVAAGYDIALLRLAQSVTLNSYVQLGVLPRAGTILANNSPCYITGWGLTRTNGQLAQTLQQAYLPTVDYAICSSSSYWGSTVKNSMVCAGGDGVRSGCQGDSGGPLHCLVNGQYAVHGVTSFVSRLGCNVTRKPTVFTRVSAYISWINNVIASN
test description: Elastase inhibition assay, spectrophotometric (N-succinyl-Ala-Ala-Ala-p-nitroanilide, 405 nm)
Assay type: biochemical
measurement conditions: ILs and positive control; aqueous solutions, 37 °C, 10 min, substrate 100 µM, duplicate; read-out: EC50 (mM) ± SD
Where a SMILES comes first, the peptide text is derived from it. The star is where a group is joined. MeOSuc = COC(=O)CCC(=O)*; CH2Cl = ClC*
readout: EC50 (mM)
API: value field is a number in mM; no unit string.

## Input Any idea what its EC50 is? The molecule is COC(=O)CCC(=O)N[C@@H](C)C(=O)N[C@@H](C)C(=O)N1CCC[C@H]1C(=O)N[C@H](C(=O)CCl)C(C)C [reference compound] (MeOSuc-AAPV-CH2Cl)
## Output 0.47
